Where do the numbers come from? From the Human Domainome abundance scans (Beltran et al. 2025).

B1: Gamma-crystallin C, residues 4 to 79; numbered along this chain, P07315 (parent)
chain: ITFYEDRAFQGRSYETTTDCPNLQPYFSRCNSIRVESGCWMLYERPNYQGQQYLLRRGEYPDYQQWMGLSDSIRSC

variants of: B1; assay: abundance fitness (aPCA) (normalised: wild type 0, dead -1); higher = more abundant; growth selection in yeast, the domain comes from the species named; conditions: Homo sapiens
Assay endpoint: abundance fitness
Give a plain numeric answer without units written out.

Recorded abundance fitness, per entry:
• R57W = -0.143
• E5L = -0.334
• Y63L = -0.097

Name the recorded abundance fitness of the item I1V in your answer. -0.032

Name the recorded abundance fitness of the item N22W in your answer. -0.19

Name the recorded abundance fitness of the item F9V in your answer. -0.628

Name the recorded abundance fitness of the item C20P in your answer. -0.64

Name the recorded abundance fitness of the item W66I in your answer. -0.006

Name the recorded abundance fitness of the item P21F in your answer. -0.161

Name the recorded abundance fitness of the item R56E in your answer. 0.005

Name the recorded abundance fitness of the item D71N in your answer. -0.007
